Experiment: in vitro
Conditions: human, hek293t cells
readout_label: viability at 48 h, 25 µM

INSERT INTO assay_data (compound, readout_label, result) VALUES
  ('C=CC(=O)NCCCN1CCCS1(=O)=O', 'viability at 48 h, 25 µM', '88.4%'),
  ('C=CC(=O)N1CCC(c2ccc(OC)cc2)C1 (stereo not drawn)', 'viability at 48 h, 25 µM', '92.1%');

Lab note: next compound to report on.
Q: Item under review: COc1ccc(CC2CCN2C(=O)C(C)Cl)cc1 (stereo not drawn) . Reported viability at 48 h, 25 µM?
Result: 88.3%

* * *

Test: in vitro
Settings: human, hek293t cells
readout_label: viability at 48 h, 25 µM (%)
Answer with a number only, understood to be in %.

Completed entries (count: 3):
INSERT INTO results (compound, readout_label, recorded_number) VALUES
  ('C=CC(=O)N1CCCC(n2cncn2)C1 (stereo not drawn)', 'viability at 48 h, 25 µM', 90.2),
  ('CC(Cl)C(=O)N(C)Cc1cn(C)nc1C(F)(F)F (stereo not drawn)', 'viability at 48 h, 25 µM', 91.6),
  ('Cc1nnnn1CCNC(=O)C(C)Cl (stereo not drawn)', 'viability at 48 h, 25 µM', 79);

Q: I have this compound here, CC(Cl)C(=O)N1CCCC(c2nc(-c3cccc(F)c3)no2)C1 (stereo not drawn) , and I need its recorded viability at 48 h, 25 µM.
Result: 90.2

Q: Try this compound too: `CCCCNC(=O)C(C#N)=Cc1ccc2c(c1)OCCO2`
Result: 106

Q: Also CC(Cl)C(=O)N1CCc2c(nnn2C)C1 (stereo not drawn) ?
Result: 80.5

Q: Request: CCOC(=O)c1cnn2ccc(NC(=O)C(C)Cl)cc12 (stereo not drawn)
Result: 89.8

Q: What about this compound? `O=C(CCl)Cc1cccc(Cl)c1`
Result: 1.29

Q: Please give the result for `N#CC(=CNc1ccc(F)cc1)C(=O)NCc1ccccc1` too.
Result: 98.3

Q: And the next one, Cc1cc(C)c(NC(=O)C(C)Cl)c(Cl)c1 (stereo not drawn) ?
Result: 109

* * *

Assay: in vitro
Details: human, hek293t cells
readout_label: viability at 48 h, 25 µM (%)
Entry rule: numbers only, all in %.

INSERT INTO results (molecule, readout_label, unit, recorded_number) VALUES
  ('COc1ccc(C=C(C#N)C(=O)NC(C)c2ccccc2)cc1O (stereo not drawn)', 'viability at 48 h, 25 µM', '%', 93.3),
  ('C=CC(=O)N(C)Cc1nc2c(n1C)CCCC2', 'viability at 48 h, 25 µM', '%', 87.1),
  ('CC(Cl)C(=O)N(C)C[C@@H]1C[C@H](F)CN1c1ccnc(N(C)C)n1 (stereo partly drawn)', 'viability at 48 h, 25 µM', '%', 79.5);

Now take the following molecule into account.
Q: May I ask what viability at 48 h, 25 µM has been recorded for CN(C)C(=O)C(CNC(=O)CCl)c1ccccc1 (stereo not drawn) ?
Result: 1.26

* * *

We begin with a simple list: items and their reported viability at 48 h, 25 µM.
Assay: in vitro
Conditions: human, hek293t cells
Give the number; % is assumed, so skip it.

Please review the entries below; each comes with its answer.
INSERT INTO results (compound, recorded_number) VALUES
  ('C=CC(=O)NC1CC(C)Cc2cc(OC)ccc21 (stereo not drawn) [3-L17]', 61.6),
  ('CCn1cc(CN(C)C(=O)C(C)Cl)nn1 (stereo not drawn) [6-L22]', 94.7),
  ('Cc1c(Cl)cccc1NC(=O)C(C)Cl (stereo not drawn) [6-I10]', 110),
  ('Cc1cc(C(=O)CCl)c(C)n1C(C)c1ccccc1 (stereo not drawn) [10-P17]', 113),
  ('N#CC(=Cc1ccccc1)C(=O)Nc1ccccc1F [8-C13]', 69.6);

Q: What viability at 48 h, 25 µM value was documented for this compound, C=CC(=O)Nc1cc(NC(=O)[C@H]2C[C@@H](C(C)=O)C2(C)C)ccc1F [2-H22] ?
Result: 97.4

Q: Moving on to COc1ccccc1NC(=O)C(C#N)=Cc1ccc(C)s1 [8-B15]
Result: 103

Q: Field entry: Cc1ccc(C=C(C#N)C(=O)NC2CCCCC2)cc1C [8-G10]
Result: 59.4

Q: Another compound: O=C(CCl)NCCOc1cccc(F)c1 [6-G03]
Result: 97.9

Q: Queued: O=C(NCc1ccco1)C1CCCN1C(=O)CCl (stereo not drawn) [5-N05]
Result: 1.39

Q: How about C=CC(=O)NCCc1ccn(-c2ccc(F)cc2)n1 [2-P03] ?
Result: 70.4

Q: Another compound to look at: CC(Cl)C(=O)NC1CCCc2c1cnn2Cc1ccccc1 (stereo not drawn) [7-G13]
Result: 87.2

Q: What about CN(C)S(=O)(=O)c1cccc(NC(=O)CCl)c1 [4-J08] ?
Result: 0.946

* * *

Experiment: in vitro
Settings: human, hek293t cells
Form field: viability at 48 h, 25 µM (one value per entry).
Value expressed in %; do not type the unit.

Solved cases (10 shown):
INSERT INTO assay_data (compound, readout_label, recorded_number) VALUES
  ('CC1=C(C#N)C(=O)N(C2CCS(=O)(=O)C2)C(=O)C1=Cc1ccco1 (stereo not drawn)', 'viability at 48 h, 25 µM', 99),
  ('COc1cc(NC(=O)CCl)cc(OC)c1OC', 'viability at 48 h, 25 µM', 1.27),
  ('O=C(CCl)N(Cc1ccsc1)C1CC1', 'viability at 48 h, 25 µM', 1.23),
  ('C=CC(=O)Nc1cn(CC(F)(F)F)nc1C', 'viability at 48 h, 25 µM', 55.3),
  ('CC(C)c1ccc(CN(C(=O)CCl)C2CC2)cc1', 'viability at 48 h, 25 µM', 1.65),
  ('COc1ccccc1NC(=O)C(C#N)=Cc1cc(C)c(C)cc1C', 'viability at 48 h, 25 µM', 115),
  ('CC(NC(=O)CCl)c1cc(F)ccc1N(C)C (stereo not drawn)', 'viability at 48 h, 25 µM', 9.52),
  ('Cc1ccc(C)c(NC(=O)C(C#N)=Cc2ccc3c(c2)OCCO3)c1', 'viability at 48 h, 25 µM', 96.2),
  ('CC(Cl)C(=O)NC1Cc2ccccc2N(C(=O)C(F)(F)F)C1 (stereo not drawn)', 'viability at 48 h, 25 µM', 87.1),
  ('C=CC(=O)NCC(C)(C)C1(O)CCOC1 (stereo not drawn)', 'viability at 48 h, 25 µM', 68);

Q: What value of viability at 48 h, 25 µM has been reported for the following compound? C=CC(=O)NC(C)c1cc2cnccc2o1 (stereo not drawn)
Result: 80.6

Q: Same read-out for CCCC(=O)Nc1ccc(C(=O)C(C)Cl)cc1 (stereo not drawn) ?
Result: 85.1

Q: What do you get for `N#CC(=Cc1cnc2ccccn12)C(=O)NCc1ccccc1` ?
Result: 127

Q: # repeat for `O=C(CCl)N1CC(S(=O)(=O)Nc2ccccc2)C1`
Result: 1.28

Q: Now the compound `C=CC(=O)N1CCC(c2ccnn2C)CC1`
Result: 96.5

Q: And for `O=C(CCl)NCC(F)(F)c1cc(-c2ccccc2)n[nH]1` ?
Result: 0.938

Q: Another compound to check: CC(Cl)C(=O)N1CCC(c2nc(N(C)C)no2)CC1 (stereo not drawn)
Result: 108

Q: Then `CC(C)NC(=O)C(C#N)=Cc1ccccc1` ?
Result: 104

Q: What about this compound? CC(NC(=O)CCl)c1cn(C)c2cc(Cl)ccc12 (stereo not drawn)
Result: 0.196

Q: Now the compound `N#CC(=Cc1ccc(F)cc1)C(=O)Nc1ccc(C(=O)O)cc1`
Result: 119

Q: Repeat for the following compound: `O=C(CCl)c1ccc2[nH]c(=O)[nH]c2c1`
Result: 1.71

* * *

Assay: in vitro
Settings: human, hek293t cells
Measured viability at 48 h, 25 µM of individual entries

Solved cases (5 shown):
INSERT INTO assay_data (molecule, result) VALUES
  ('CC(C)n1cc(C2=CCCN(C(=O)CCl)CC2)nn1', '1.75%'),
  ('C=CC(=O)N1CCC(n2ccc(C)n2)CC1', '139%'),
  ('O=C(CCl)NC1COc2ncccc21 (stereo not shown)', '53.7%'),
  ('C=CC(=O)N1CCC(n2cnc3ccccc3c2=O)C1 (stereo not shown)', '63.6%'),
  ('CC(Cl)C(=O)Nc1cc(C(F)(F)F)ccc1Cl (stereo not shown)', '83.3%');

Q: Field request: viability at 48 h, 25 µM | item: C=CC(=O)N1CCOC(Cn2nc(C)cc2C)C1 (stereo not shown)
Result: 40.5%

Q: Repeat with `O=C1C=CC(=O)N1c1cc(C(F)(F)F)ccc1Cl`
Result: 58.9%
